B1: LCOR (parent)
chain: YKVKERLGTLKNPPKKKMKLMSG

Variants of: B1
Assay: protein stability index of a GFP-peptide fusion (GPS, HEK-293T) (PSI 1-6); higher = more stable;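 also: lentivirally expressed fusions sorted by FACS into six bins by GFP to DsRed ratio, PSI derived from sequencing read proportions per bin multiplied by bin number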
Conditions: c terminus: native
metric-name: protein stability index
Answer as a number with no unit attached.

[Q] Name the recorded protein stability index of the variant listed here: YKVKERLGTLKNPPKKRMKLMSG
[A] 2.22

[Q] Name the recorded protein stability index of the variant listed here: YKYKERLGTLKNPPKKKMKLMSG
[A] 1.69

[Q] Name the recorded protein stability index of the variant listed here: YKVKERLGTLKNPPKKKMKSMSG
[A] 3.02

[Q] Name the recorded protein stability index of the variant listed here: YKVKERYGTLKNPPKKKMKLMSG
[A] 1.53

[Q] Name the recorded protein stability index of the variant listed here: YKVKERLGTLKNPPKKKMKLPSG
[A] 2.56

[Q] Name the recorded protein stability index of the variant listed here: YKVKERLGTLKRPPKKKMKLMSG
[A] 3.15

[Q] Name the recorded protein stability index of the variant listed here: YEVKERLGTLKNPPKKKMKLMSG
[A] 1.71

[Q] Name the recorded protein stability index of the variant listed here: YKGKERLGTLKNPPKKKMKLMSG
[A] 1.67

Cited source for all entries: the supplement of paper PMC10567573
